IC50 listing for selected molecules.
# System: CD69 by B lymphocytes in human whole blood activated with goat F(ab')2 anti-human IgM
# protocol_summary: CD69 Whole Blood Assay (CD69 Hu Blood FACS)
# Format: cell-based
# run_conditions: Lymphocyte, Table 1, anti-IgM stimulation, CD69 positive of CD20 positive cells
Respond numerically; units are nM and should not be typed.

For orientation, consider the following solved cases.
>  <smiles_text>
Cc1cc(C)n(CC(=O)Nc2cc(-c3ccnc(N4CCn5c(cc6c5CC(C)(C)C6)C4=O)c3CO)cn(C)c2=O)n1

>  <IC50 [nM]>
2400

$$$$
>  <smiles_text>
CC(=O)Nc1cc(-c2ccnc(-n3ncc4cc(C(C)(C)C)cc(F)c4c3=O)c2CO)cn(C)c1=O

>  <IC50 [nM]>
335

$$$$
>  <smiles_text>
CCC(=O)Nc1cc(-c2ccnc(-n3ncc4cc(C(C)(C)C)cc(F)c4c3=O)c2CO)cn(C)c1=O

>  <IC50 [nM]>
527

$$$$

Fill blank: measured IC50 of the molecule CCC(=O)Nc1cc(-c2ccnc(N3CCn4c(cc5c4CC(C)(C)C5)C3=O)c2CO)cn(C)c1=O is ____.
1600

* * *

# System: CD69 by B lymphocytes in human whole blood activated with goat F(ab')2 anti-human IgM
# protocol_summary: CD69 Whole Blood Assay (CD69 Hu Blood FACS)
# Type: cell-based
# run_conditions: Lymphocyte, Table 1, anti-IgM stimulation, CD69 positive of CD20 positive cells
Measured IC50, listed per entry.

>  <smiles_text>
Cn1cc(-c2ccnc(N3CCn4c(cc5c4CC(C)(C)C5)C3=O)c2CO)cc(NC(=O)c2ccc(N3CCCC3)nc2)c1=O

>  <assay_system>
CD69 by B lymphocytes in human whole blood activated with goat F(ab')2 anti-human IgM

>  <IC50>
> 3500 nM

$$$$

Need IC50 of CC(=O)Nc1cc(-c2ccnc(N3CCn4c(cc5c4CC(C)(C)C5)C3=O)c2CO)cn(C)c1=O , thanks.
535 nM

Try Cc1cc(C(=O)Nc2cc(-c3ccnc(N4CCn5c(cc6c5CC(C)(C)C6)C4=O)c3CO)cn(C)c2=O)nn1C next.
> 5800 nM

* * *

# assay_system: full length human wildtype Btk (Homo sapiens)
# Construct: V5 (C); 6xHis (C); made in house; host or cells: Sf9 insect cells (baculovirus, pFastBac)
# protocol_summary: Biochemical Btk Assay (BTK LC3K)
# run_conditions: Table 2
Item-by-item account of Ki
Just the number in nM, nothing appended.

Some entries whose results are on file:
>  <compound>
CN1CC[C@@]2(C[C@H]2C(=O)Nc2cc(-c3ccnc(-n4ncc5cc(C(C)(C)C)cc(F)c5c4=O)c3CO)cn(C)c2=O)C1 (single isomer, unassigned) [Compound 175]

>  <readout_unit>
nM

>  <Ki>
7.6

$$$$
>  <compound>
Cn1cc(-c2ccnc(N3CCc4c(cc5n4CC(C)(C)C5)C3=O)c2CO)cc(NC(=O)C2CC2)c1=O [Compound 137]

>  <readout_unit>
nM

>  <Ki>
28.5

$$$$

Moving on to another compound below.
Tell me the measured Ki of Cn1cc(-c2ccnc(N3CCn4c(cc5c4CC(C)(C)C5)C3=O)c2CO)cc(NC(=O)[C@H]2CC23CCC3)c1=O (single isomer, unassigned) [Compound 147] , please.
4.8

* * *

# Tested on: CD69 by B lymphocytes in human whole blood activated with goat F(ab')2 anti-human IgM
# protocol_summary: CD69 Whole Blood Assay (CD69 Hu Blood FACS)
# Type: cell-based
# run_conditions: Homo sapiens, Lymphocyte, Table 1, anti-IgM stimulation, CD69 positive of CD20 positive cells
measured_parameter: IC50 (nM)
Write the value in nM as a bare number.

In the examples that follow, each entry is paired with its recorded IC50.
>  <smiles_text>
Cn1cc(-c2ccnc(N3CCn4c(cc5c4CC(C)(C)C5)C3=O)c2CO)cc(NC(=O)[C@@H]2C[C@@H]2F)c1=O

>  <readout_value>
85.8

$$$$
>  <smiles_text>
Cn1cc(-c2ccnc(-n3ncc4cc(C(C)(C)C)cc(F)c4c3=O)c2CO)cc(NC(=O)C2CC2)c1=O

>  <readout_value>
62.5

$$$$

As a next step, examine the compound that follows.
Returns the measured IC50 for the input compound. Input: Cn1cc(-c2ccnc(N3CCn4c(cc5c4CC(C)(C)C5)C3=O)c2CO)cc(NC(=O)[C@H]2C[C@H]2F)c1=O
122

* * *

Item-by-item account of pIC50
# Tested on: CD69 by B lymphocytes in human whole blood activated with goat F(ab')2 anti-human IgM
# protocol_summary: CD69 Whole Blood Assay (CD69 Hu Blood FACS)
# Assay type: cell-based
# run_conditions: Lymphocyte, Table 1, anti-IgM stimulation, CD69 positive of CD20 positive cells
Entry type: numeric. Quantity: pIC50, the -log10 of concentration in molar units.

>  <compound>
Cn1cc(-c2ccnc(N3CCn4c(cc5c4CC(C)(C)C5)C3=O)c2CO)cc(NC(=O)CC2CC2)c1=O [Compound 103]

>  <readout_value>
5.31

$$$$
>  <compound>
Cn1cc(-c2ccnc(N3CCn4c(cc5c4CC(C)(C)C5)C3=O)c2CO)cc(NC(=O)C2CCC2)c1=O [Compound 101]

>  <readout_value>
5.38

$$$$
>  <compound>
CC1CC1C(=O)Nc1cc(-c2ccnc(N3CCn4c(cc5c4CC(C)(C)C5)C3=O)c2CO)cn(C)c1=O (stereo not shown) [Compound 106]

>  <readout_value>
6.43

$$$$

Given the compound Cn1cc(-c2ccnc(N3CCn4c(cc5c4CC(C)(C)C5)C3=O)c2CO)cc(NC(=O)C2CC2(F)F)c1=O (stereo not shown) [Compound 116] , what is its reported pIC50?
6.01

* * *

# assay_system: full length human wildtype Btk (Homo sapiens, UniProt Q06187)
# Construct: V5 (C); 6xHis (C); made in house; host or cells: Sf9 insect cells (baculovirus, pFastBac)
# Sequence (Q06187 whole entry): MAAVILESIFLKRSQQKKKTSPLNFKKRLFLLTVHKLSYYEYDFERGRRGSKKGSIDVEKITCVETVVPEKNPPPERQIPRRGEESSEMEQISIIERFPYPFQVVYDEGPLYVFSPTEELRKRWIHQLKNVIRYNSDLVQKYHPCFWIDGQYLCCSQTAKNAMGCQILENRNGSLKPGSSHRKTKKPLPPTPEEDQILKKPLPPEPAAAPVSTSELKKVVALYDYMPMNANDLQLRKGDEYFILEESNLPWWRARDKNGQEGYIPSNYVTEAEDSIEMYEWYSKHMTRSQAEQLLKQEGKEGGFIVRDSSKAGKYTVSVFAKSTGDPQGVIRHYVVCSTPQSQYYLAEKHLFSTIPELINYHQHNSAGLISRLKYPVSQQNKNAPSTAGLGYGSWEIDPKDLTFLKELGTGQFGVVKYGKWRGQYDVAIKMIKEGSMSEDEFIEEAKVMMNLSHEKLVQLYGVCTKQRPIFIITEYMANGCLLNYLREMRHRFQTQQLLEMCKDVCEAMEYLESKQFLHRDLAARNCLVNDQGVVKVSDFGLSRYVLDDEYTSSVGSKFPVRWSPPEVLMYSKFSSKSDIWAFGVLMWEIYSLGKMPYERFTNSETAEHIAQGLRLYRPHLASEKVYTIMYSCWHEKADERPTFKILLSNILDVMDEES
# protocol_summary: Biochemical Btk Assay (BTK LC3K)
# run_conditions: Table 2
measured_parameter: pKi
Friendly reminder that pKi comes from taking -log10 of the concentration in mol/L.

>  <compound>
Cn1cc(-c2cccc(N3CCc4c(cc5n4CC(C)(C)C5)C3=O)c2CO)cc(NC(=O)C2CC2)c1=O

>  <pKi>
8.74

$$$$
>  <compound>
Cn1cc(-c2ccnc(N3CCn4c(cc5c4CC(C)(C)C5)C3=O)c2CO)cc(NC(=O)[C@@H]2CC23CC3)c1=O (single isomer, unassigned)

>  <pKi>
8.28

$$$$
>  <compound>
CN1CCC2(CC1)C[C@@H]2C(=O)Nc1cc(-c2ccnc(-n3ncc4cc(C(C)(C)C)cc(F)c4c3=O)c2CO)cn(C)c1=O (single isomer, unassigned)

>  <pKi>
8.27

$$$$
>  <compound>
CCOC1C[C@@H]1C(=O)Nc1cc(-c2ccnc(N3CCn4c(cc5c4CC(C)(C)C5)C3=O)c2CO)cn(C)c1=O (mixture of isomers)

>  <pKi>
7.96

$$$$
>  <compound>
Cn1cc(-c2cc(F)cc(N3CCc4c(cc5n4CC(C)(C)C5)C3=O)c2CO)cc(NC(=O)[C@@H]2C[C@@H]2F)c1=O

>  <pKi>
9.00

$$$$
>  <compound>
Cn1cc(-c2cc(F)cc(N3CCc4c(cc5n4CCCC5)C3=O)c2CO)cc(NC(=O)[C@@H]2C[C@@H]2F)c1=O

>  <pKi>
8.62

$$$$
>  <compound>
Cn1cc(-c2ccnc(N3CCn4c(cc5c4CC(C)(C)C5)C3=O)c2CO)cc(NC(=O)[C@H]2CC23CC3)c1=O (single isomer, unassigned)

>  <pKi>
8.24

$$$$
>  <compound>
Cn1cc(-c2cc(F)cc(N3CCn4c(cc5c4CC(C)(C)C5)C3=O)c2CO)cc(NC(=O)C2CC2)c1=O

>  <pKi>
8.89

$$$$
>  <compound>
CN1CCC2(CC1)C[C@H]2C(=O)Nc1cc(-c2ccnc(-n3ncc4cc(C(C)(C)C)cc(F)c4c3=O)c2CO)cn(C)c1=O (single isomer, unassigned)

>  <pKi>
7.39

$$$$

With those in mind, consider the next compound.
Using the record for Cn1cc(-c2ccnc(-n3ncc4cc(C(C)(C)C)cc(F)c4c3=O)c2CO)cc(NC(=O)[C@H]2CC23CC3)c1=O (single isomer, unassigned) , report its pKi.
8.30

* * *

Some compounds, each annotated with its measured pKi.
# assay_system: full length human wildtype Btk (Homo sapiens, UniProt Q06187)
# Construct: V5 (C); 6xHis (C); made in house; host or cells: Sf9 insect cells (baculovirus, pFastBac)
# protocol_summary: Biochemical Btk Assay (BTK LC3K)
# run_conditions: Table 2
By convention, pKi is the negative base-10 log of a molar concentration.

Examples with answers:
>  <compound>
Cn1cc(-c2cccc(N3CCc4c(cc5n4CCCC5)C3=O)c2CO)cc(NC(=O)C2CC2)c1=O

>  <measured_parameter>
pKi

>  <readout_value>
8.11

$$$$
>  <compound>
Cn1cc(-c2ccnc(N3CCc4cc(OC(F)(F)F)ccc4C3=O)c2CO)cc(NC(=O)C2CC2)c1=O

>  <measured_parameter>
pKi

>  <readout_value>
6.58

$$$$
>  <compound>
CN1CC[C@]2(C[C@@H]2C(=O)Nc2cc(-c3ccnc(-n4ncc5cc(C(C)(C)C)cc(F)c5c4=O)c3CO)cn(C)c2=O)C1 (single isomer, unassigned)

>  <measured_parameter>
pKi

>  <readout_value>
7.59

$$$$
>  <compound>
Cn1cc(-c2cc(F)cc(N3CCn4c(cc5c4CC(C)(C)C5)C3=O)c2CO)cc(NC(=O)[C@@H]2C[C@@H]2F)c1=O

>  <measured_parameter>
pKi

>  <readout_value>
9.10

$$$$
>  <compound>
Cn1cc(-c2cc(F)cc(N3CCn4c(cc5c4CC(C)(C)C5)C3=O)c2CO)cc(NC(=O)[C@H]2C[C@H]2F)c1=O

>  <measured_parameter>
pKi

>  <readout_value>
8.68

$$$$

Turning now to a further compound:
Provide the documented pKi with full length human wildtype Btk (Homo sapiens, UniProt Q06187) as the system for Cn1cc(-c2ccnc(N3CCc4cc(OC(F)F)cc(F)c4C3=O)c2CO)cc(NC(=O)C2CC2)c1=O
6.63
